- Test system: PPARg DBDmut IVT, anti-PPARg (DBD mutation: PPARg1 K132A/R137A, NR concentration 270 nM)
- measurement_notes: PBM binding z-score (relative to random genomic background probes); higher = stronger binding; sequences stand for … in GC…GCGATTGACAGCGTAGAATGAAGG
Record fulfilled whenever PBM binding z-score is at 2 or higher; record not fulfilled when lower.

- biosequence: "TCAGACAGGTGAAGTTAACTCAGGTACGCAGTCG"
  qualitative_label: "not fulfilled"
- biosequence: "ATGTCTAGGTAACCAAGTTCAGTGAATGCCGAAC"
  qualitative_label: "not fulfilled"
- biosequence: "AGTCAAAGATCAGGACGAGGTAACGTAAAGCACG"
  qualitative_label: "not fulfilled"
- biosequence: "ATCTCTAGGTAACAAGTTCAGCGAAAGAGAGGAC"
  qualitative_label: "fulfilled"

====

Overview of recorded PBM binding z-score for various sequences
- System: LXRa:RXRa (NR concentration 270 nM, RXRa partner concentration 90 nM)
- measurement_notes: PBM binding z-score (relative to random genomic background probes); higher = stronger binding; sequences stand for … in GC…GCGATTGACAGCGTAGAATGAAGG

- biosequence: "GCAGACAGCTGAAACGCAGGTAACTCAGGGTGGC"
  PBM binding z-score: -0.548
- biosequence: "CCTCGTTGGTCAGGAGGTCACACACCGGATATGA"
  PBM binding z-score: 3.49
- biosequence: "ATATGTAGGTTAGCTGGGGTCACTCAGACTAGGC"
  PBM binding z-score: 5.35
- biosequence: "CCGAGTAGGTTAGGGGGCATTCAGGCAACGGTGA"
  PBM binding z-score: 1.91
- biosequence: "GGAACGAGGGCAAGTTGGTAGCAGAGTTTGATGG"
  PBM binding z-score: 0.565
- biosequence: "ATCGAATGGTCGACGAGGTGAGTATACACCGTTT"
  PBM binding z-score: -0.552
- biosequence: "TCTCGGAGGACACGCAGGTCAGAGCTTTCCAGAG"
  PBM binding z-score: 0.453
- biosequence: "TTACCAAGGTGAAGGTAGTTGATCCCTCTGTAGA"
  PBM binding z-score: 0.286
- biosequence: "GCTAACGGGTCAAAGGTTATAGCATGAATAGAAT"
  PBM binding z-score: 5.26
- biosequence: "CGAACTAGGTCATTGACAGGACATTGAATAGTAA"
  PBM binding z-score: 3.53
- biosequence: "CGTCCAAGTTCAACTAAGGTAACGTAAAGCACGC"
  PBM binding z-score: 3.59
- biosequence: "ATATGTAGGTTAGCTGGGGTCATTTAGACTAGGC"
  PBM binding z-score: 5.92
- biosequence: "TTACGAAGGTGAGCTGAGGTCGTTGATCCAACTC"
  PBM binding z-score: 1.46
- biosequence: "GGAACGAGTGCAAAGTTGATAGCATCTGTCGACG"
  PBM binding z-score: -0.0741
- biosequence: "CCGAGTAGGTTATGGGCCATTCAGGCAACGGTGA"
  PBM binding z-score: 0.176
- biosequence: "TCTATTAGTTGAAGGGCAACTGACGAGTCCGTTT"
  PBM binding z-score: 0.726
- biosequence: "CAAACTATGTCACGAAAGGTCAAAGTCGAATGAC"
  PBM binding z-score: 6.78
- biosequence: "CGTCAAAGTTCAACTAAGGTAAAGTAAAGCACGC"
  PBM binding z-score: 6.38
- biosequence: "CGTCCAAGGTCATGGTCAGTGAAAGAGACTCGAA"
  PBM binding z-score: 5.27
- biosequence: "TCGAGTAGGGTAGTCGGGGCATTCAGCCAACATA"
  PBM binding z-score: -0.324
- biosequence: "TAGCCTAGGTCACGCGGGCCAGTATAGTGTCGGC"
  PBM binding z-score: 3.81
- biosequence: "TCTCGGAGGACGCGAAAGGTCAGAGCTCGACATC"
  PBM binding z-score: 3.21
- biosequence: "CCTACTGAGCCAAAGGTCATTGATTCCAATGCTC"
  PBM binding z-score: 5.55
- biosequence: "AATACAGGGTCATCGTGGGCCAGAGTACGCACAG"
  PBM binding z-score: 6.08
- biosequence: "GCTGCTAGGTCAGGTTGGTGAGCTAACGGGTACG"
  PBM binding z-score: 0.598
- biosequence: "CCTCGGAGGACAACAGGAGTTCAGAGCTGCCAGA"
  PBM binding z-score: 0.777
- biosequence: "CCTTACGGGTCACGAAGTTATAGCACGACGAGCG"
  PBM binding z-score: 3.71
- biosequence: "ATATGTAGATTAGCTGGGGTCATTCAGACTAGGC"
  PBM binding z-score: 3.51
- biosequence: "TCATATAGGTAAAAGCTAGGTGAAAGTCCGATCT"
  PBM binding z-score: 0.688
- biosequence: "ATATGTAGGTTCAGGGTCATTCAGGTTGGTTCGC"
  PBM binding z-score: 4.56
- biosequence: "CATACAGGGTCAGCTAGGCCAGAGTAGGGACGGC"
  PBM binding z-score: 2.84
- biosequence: "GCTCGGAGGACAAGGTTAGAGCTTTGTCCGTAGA"
  PBM binding z-score: -0.186
- biosequence: "GATACAGGGTCAGCTAGAGGCCAGATTATGGAAA"
  PBM binding z-score: 2.85
- biosequence: "TCTCGGAGGACACGATAGGTCAGAGCTCGACATC"
  PBM binding z-score: 1.92
- biosequence: "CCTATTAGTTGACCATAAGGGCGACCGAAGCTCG"
  PBM binding z-score: 0.482
- biosequence: "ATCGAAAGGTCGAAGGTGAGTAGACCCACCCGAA"
  PBM binding z-score: 3.33
- biosequence: "GAAACAGGGTCAAGGCCAGAGTACGCGTATTGAT"
  PBM binding z-score: 4.18
- biosequence: "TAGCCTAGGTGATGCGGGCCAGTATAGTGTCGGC"
  PBM binding z-score: -0.891
- biosequence: "AGAACGAGGGCACGCTGAATTGATAGCAGAGTAG"
  PBM binding z-score: 0.375
